- System: Psdm. aerug. Bonn
- testProtocol: MIC, liquid medium test tube series dilution test
- Assay type: cell-based, Pseudomonas aerug.
- measurementSetup: 24 hours, 37°C
- Method: The chemotherapeutic activity of the new penicillins was tested in vivo and in vitro. The in vitro inhibition values (MIC = minimum inhibition concentration (see Tables 1 and 2) were determined in a liquid medium in the test tube series dilution test, with readings being taken after 24 hours' incubation at 37°C. The MIC is indicated by the non-turbid test tube in the dilution series. A complete medium of the following composition was used as the nutrient medium: […]
This listing pairs molecules with measured MIC.

Some molecules with known MIC results, for comparison:
CNC(=O)N(C)C(=O)N[C@@H](C(=O)N[C@@H]1C(=O)N2[C@@H]1SC(C)(C)[C@@H]2C(=O)O)c1ccccc1 [Example 110] :: 20-100 units/ml
COC(=O)N(C)C(=O)NC(C(=O)N[C@@H]1C(=O)N2[C@@H]1SC(C)(C)[C@@H]2C(=O)O)c1ccc(OC)cc1 (stereo partly drawn) [Example 18] :: 100-500 units/ml
CN(C(=O)N[C@@H](C(=O)N[C@@H]1C(=O)N2[C@@H]1SC(C)(C)[C@@H]2C(=O)O)c1ccccc1)C(=O)c1ccc(Cl)cc1 [Example 112] :: 4- 20 units/ml

Q) State the recorded MIC for this entry: CCN(C(=O)N[C@@H](C(=O)N[C@@H]1C(=O)N2[C@@H]1SC(C)(C)[C@@H]2C(=O)O)c1ccccc1)C(=O)c1ccc(OC)c([N+](=O)[O-])c1 [Example 108]
A) 0.8-4 units/ml

Q) State the recorded MIC for this entry: CC1(C)S[C@@H]2[C@H](NC(=O)[C@H](NC(=O)N3CCNC3=O)c3ccccc3)C(=O)N2[C@H]1C(=O)O [Example 52]
A) 12,5 units/ml

Q) State the recorded MIC for this entry: CN(C(=O)N[C@@H](C(=O)N[C@@H]1C(=O)N2[C@@H]1SC(C)(C)[C@@H]2C(=O)O)c1ccccc1)C(=O)c1cccs1 [Example 37]
A) 4-20 units/ml

Q) State the recorded MIC for this entry: CN(C(=O)N[C@@H](C(=O)N[C@@H]1C(=O)N2[C@@H]1SC(C)(C)[C@@H]2C(=O)O)c1ccccc1)C(=O)c1cc(Cl)ccc1Cl [Example 111]
A) 4-20 units/ml

Q) State the recorded MIC for this entry: CC1(C)S[C@@H]2[C@H](NC(=O)[C@H](NC(=O)N3CCNC3=O)c3ccccc3)C(=O)N2[C@H]1C(=O)O [Example 51]
A) 12,5 units/ml

* * *

This listing pairs compounds with measured MIC.
- Test system: E. coli C 165
- testProtocol: MIC, liquid medium test tube series dilution test
- Assay type: cell-based
- measurementSetup: E. coli C 165, 24 hours, 37°C
- Protocol: The chemotherapeutic activity of the new penicillins was tested in vivo and in vitro. The in vitro inhibition values (MIC = minimum inhibition concentration (see Tables 1 and 2) were determined in a liquid medium in the test tube series dilution test, with readings being taken after 24 hours' incubation at 37°C. The MIC is indicated by the non-turbid test tube in the dilution series. A complete medium of the following composition was used as the nutrient medium: […]

CCCN(C(C)=O)C(=O)N[C@@H](C(=O)N[C@@H]1C(=O)N2[C@@H]1SC(C)(C)[C@@H]2C(=O)O)c1ccccc1 :: 20-100 units/ml
CC1(C)S[C@@H]2[C@H](NC(=O)[C@H](NC(=O)N3CCCCCC3=O)c3ccccc3)C(=O)N2[C@H]1C(=O)O :: 20-100 units/ml
CN(C(=O)C=Cc1cccc([N+](=O)[O-])c1)C(=O)N[C@@H](C(=O)N[C@@H]1C(=O)N2[C@@H]1SC(C)(C)[C@@H]2C(=O)O)c1ccccc1 :: < 0.8 units/ml
C=CCN(C(C)=O)C(=O)NC(C(=O)N[C@@H]1C(=O)N2[C@@H]1SC(C)(C)[C@@H]2C(=O)O)c1cccs1 (some centres unmarked) :: 20-100 units/ml
CCC(=O)N(C)C(=O)N[C@@H](C(=O)N[C@@H]1C(=O)N2[C@@H]1SC(C)(C)[C@@H]2C(=O)O)c1ccccc1 :: 0.8-4 units/ml
CN(C(=O)N[C@@H](C(=O)N[C@@H]1C(=O)N2[C@@H]1SC(C)(C)[C@@H]2C(=O)O)c1ccccc1)C(=O)c1cc(Cl)ccc1Cl :: 0.8-4 units/ml
CN(C(=O)NC(C(=O)N[C@@H]1C(=O)N2[C@@H]1SC(C)(C)[C@@H]2C(=O)O)c1c(Cl)cccc1Cl)C(=O)c1ccccc1 (some centres unmarked) [Example 31] :: 100-500 units/ml

Consider the record given below.
Q) Item: CCCN(C(=O)N[C@@H](C(=O)N[C@@H]1C(=O)N2[C@@H]1SC(C)(C)[C@@H]2C(=O)O)c1ccccc1)C(=O)c1ccc(OC)c([N+](=O)[O-])c1 Test system: E. coli C 165 Read-out: MIC Value: ?
A) 4-20 units/ml

* * *

- System: Staph. aureus 1777 E
- testProtocol: MIC, liquid medium test tube series dilution test
- Assay type: cell-based, Staphylococcus aureus
- measurementSetup: 24 hours, 37°C
readoutType: MIC (units/ml)

CN(C(=O)N[C@@H](C(=O)N[C@@H]1C(=O)N2[C@@H]1SC(C)(C)[C@@H]2C(=O)O)c1ccccc1)C(=O)C1CCCCC1 [Example 62] :: 400
CC(=O)N(C)C(=O)NC(C(=O)N[C@@H]1C(=O)N2[C@@H]1SC(C)(C)[C@@H]2C(=O)O)c1ccc(Cl)cc1 (some centres unmarked) [Example 121] :: 100
CN(C(=O)N[C@@H](C(=O)N[C@@H]1C(=O)N2[C@@H]1SC(C)(C)[C@@H]2C(=O)O)c1ccccc1)C(=O)C1CC=CCC1 (single isomer, unassigned) [Example 65] :: 50

I: CN(C(=O)NC(C(=O)N[C@@H]1C(=O)N2[C@@H]1SC(C)(C)[C@@H]2C(=O)O)c1cccs1)C(=O)c1ccccc1Cl (some centres unmarked) [Example 135]
II: COC(=O)N(C)C(=O)N[C@@H](C(=O)N[C@@H]1C(=O)N2[C@@H]1SC(C)(C)[C@@H]2C(=O)O)c1ccccc1 [Example 10 B]
Q) From the recorded data, which exceeds the other in MIC: I or II ? Your choice should be expressed through its label.
A) II

* * *

- Test system: Psdm. aerug. Walter
- testProtocol: MIC, liquid medium test tube series dilution test
- Assay type: cell-based, Pseudomonas aerug.
- measurementSetup: 24 hours, 37°C
readoutType: MIC (units/ml)

CC1(C)S[C@@H]2[C@H](NC(=O)[C@H](NC(=O)N(CCCl)C(=O)CCC(Cl)(Cl)Cl)c3ccccc3)C(=O)N2[C@H]1C(=O)O :: 400

I: CN(C(=O)N[C@@H](C(=O)N[C@@H]1C(=O)N2[C@@H]1SC(C)(C)[C@@H]2C(=O)O)c1ccccc1)C(=O)c1ccccc1Br
II: CCC(=O)N(C(=O)N[C@@H](C(=O)N[C@@H]1C(=O)N2[C@@H]1SC(C)(C)[C@@H]2C(=O)O)c1ccccc1)c1ccccc1
III: CN(C(=O)N[C@@H](C(=O)N[C@@H]1C(=O)N2[C@@H]1SC(C)(C)[C@@H]2C(=O)O)c1ccccc1)C(=O)C1CCCCC1
Q) Arrange the 3 compounds from largest to smallest MIC. Answer format: list of labels, ordered as asked.
A) II, III, I

* * *

This listing pairs molecules with measured MIC.
- Test system: Proteus vulg. 1017
- testProtocol: MIC, liquid medium test tube series dilution test
- Format: cell-based, Proteus vulgaris
- measurementSetup: Proteus vulg. 1017, 24 hours, 37°C

CCOC(=O)N(C)C(=O)NC(C(=O)N[C@@H]1C(=O)N2[C@@H]1SC(C)(C)[C@@H]2C(=O)O)c1ccc(SC)cc1 (stereo partly drawn) :: 20-100 units/ml
CCN(C(C)=O)C(=O)N[C@@H](C(=O)N[C@@H]1C(=O)N2[C@@H]1SC(C)(C)[C@@H]2C(=O)O)c1ccccc1 :: 20-100 units/ml
CCCCCCCCCCCCCCCCCC(=O)N(C)C(=O)N[C@@H](C(=O)N[C@@H]1C(=O)N2[C@@H]1SC(C)(C)[C@@H]2C(=O)O)c1ccccc1 :: > 400 units/ml
CCCCCCCCCCCCCCCCN(C(C)=O)C(=O)N[C@@H](C(=O)N[C@@H]1C(=O)N2[C@@H]1SC(C)(C)[C@@H]2C(=O)O)c1ccccc1 :: > 400 units/ml

Consider the record given below.
Q) Item: C=CCN(C(C)=O)C(=O)NC(C(=O)N[C@@H]1C(=O)N2[C@@H]1SC(C)(C)[C@@H]2C(=O)O)c1cccs1 (stereo partly drawn) Test system: Proteus vulg. 1017 Read-out: MIC Value: ?
A) > 500 units/ml

* * *

- Tested on: Klebsiella 63
- testProtocol: MIC, liquid medium test tube series dilution test
- Assay type: cell-based
- measurementSetup: Klebsiella 63, 24 hours, 37°C
This listing pairs compounds with measured MIC.

Some compounds with known MIC results, for comparison:
CN(C(=O)N[C@@H](C(=O)N[C@@H]1C(=O)N2[C@@H]1SC(C)(C)[C@@H]2C(=O)O)c1ccccc1)C(=O)c1cc(Cl)ccc1Cl [Example 111] :: 4-20 units/ml
COC(=O)N(C)C(=O)N[C@@H](C(=O)N[C@@H]1C(=O)N2[C@@H]1SC(C)(C)[C@@H]2C(=O)O)c1c(Cl)cccc1Cl [Example 7] :: > 500 units/ml
Cc1ccc(C(NC(=O)N(C)C(=O)c2ccccc2)C(=O)N[C@@H]2C(=O)N3[C@@H]2SC(C)(C)[C@@H]3C(=O)O)cc1 (some centres unmarked) [Example 4] :: 20-100 units/ml
CN(C(=O)N[C@@H](C(=O)N[C@@H]1C(=O)N2[C@@H]1SC(C)(C)[C@@H]2C(=O)O)c1ccccc1)C(=O)c1ccc(Cl)cc1 [Example 112] :: 4-20 units/ml

Q) State the recorded MIC for this entry: CN(C(=O)C=Cc1cccc([N+](=O)[O-])c1)C(=O)N[C@@H](C(=O)N[C@@H]1C(=O)N2[C@@H]1SC(C)(C)[C@@H]2C(=O)O)c1ccccc1 [Example 131]
A) 4-20 units/ml

Q) State the recorded MIC for this entry: CC1(C)S[C@@H]2[C@H](NC(=O)[C@H](NC(=O)N(C(=O)c3ccccc3)c3ccccc3)c3ccccc3)C(=O)N2[C@H]1C(=O)O [Example 99 B]
A) > 500 units/ml

Q) State the recorded MIC for this entry: COC(=O)N(C)C(=O)NC(C(=O)N[C@@H]1C(=O)N2[C@@H]1SC(C)(C)[C@@H]2C(=O)O)c1cccs1 (some centres unmarked) [Example 20]
A) 20-100 units/ml

Q) State the recorded MIC for this entry: CSc1ccc(C(NC(=O)N(C)C(=O)c2ccccc2)C(=O)N[C@@H]2C(=O)N3[C@@H]2SC(C)(C)[C@@H]3C(=O)O)cc1 (some centres unmarked) [Example 33]
A) 4-20 units/ml

Q) State the recorded MIC for this entry: CCCCCCCCCCCCCCCCCC(=O)N(C)C(=O)N[C@@H](C(=O)N[C@@H]1C(=O)N2[C@@H]1SC(C)(C)[C@@H]2C(=O)O)c1ccccc1 [Example 71]
A) > 400 units/ml
